# EXPERIMENT NOTES: Counterscreen qHTS for small molecule stabilizers of the endoplasmic reticulum resident proteome: GLuc-NoTag assay (AID 1508627); further: potency means the concentration at half of the fitted maximal effect
# CONDITION INFO: Gaussia luciferase NoTag secretion counterscreen, luminescence, thapsigargin 100 nM for final 4 h; series mostly up to 76.4 µM
Inconclusive results are not listed. The source made the active and inactive calls. The call rests on the fitted dose curve; in most records, active means well fitted inhibition curve with a large enough effect; inconclusive means small, poorly fitted or top-dose-only effect; inactive means no such curve, though single readings can be large or run the other way.
OUTCOME MEASURE: Potency

[[record]]
molecule = "Oc1ccc2[nH]cc(CCCCN3CC=C(c4ccccc4)CC3)c2c1"
experimental_result = "inactive"

[[record]]
molecule = "O=C1NCN(c2ccccc2)C12CCN(CCCOc1ccc(F)cc1)CC2"
experimental_result = "8.91 µM (active)"

[[record]]
molecule = "Cc1c(Cl)c(=O)oc2cc(OP(=O)(OCCCl)OCCCl)ccc12"
experimental_result = "inactive"

[[record]]
molecule = "NC(=O)OCCCc1ccccc1"
experimental_result = "inactive"

[[record]]
molecule = "CCCC[N+]1(C)[C@@H]2CC(OC(=O)[C@H](CO)c3ccccc3)C[C@H]1[C@@H]1O[C@@H]12 (stereo partly specified)"
experimental_result = "inactive"

[[record]]
molecule = "CC(C)=CCN1CC[C@@]2(C)c3cc(O)ccc3C[C@@H]1[C@@H]2C"
experimental_result = "inactive"


---

# EXPERIMENT NOTES: VSVG counterscreen qHTS to identify inhibitors of SARS-CoV-2 cell entry (AID 1645847); further: nearly all actives have a fitted effect of over 65% in size
# CONDITION INFO: VSV-G pseudotyped particle entry, luciferase; series mostly up to 57.2 µM
# Description: Assay Provider: Wei Zheng, Ph.D. National Center for Advancing Translational Sciences, National Institute of Health, Rockville, MD. SARS-CoV-2 spike protein, within the viral envelope, mediates viral attachment and infection of host cells. The SARS-CoV-2 spike protein specifically binds to the host receptor ACE2 (Angiotensin-converting enzyme 2). […] 11. […] Read luminescence signal (ViewLux plate reader, PerkinElmer). […]
Records with an inconclusive call do not appear. The source made the active and inactive calls. The call rests on the fitted dose curve.
Possible outcomes: 1 (active), -1 (inactive)

[[record]]
molecule = "O=C(Nc1ccccc1)OCC(CN1CCCCC1)OC(=O)Nc1ccccc1 (stereo unspecified)"
group = -1

[[record]]
molecule = "CCOC(=O)C(C)(C)Oc1ccc(Cl)cc1"
group = 1

[[record]]
molecule = "O[C@@H](COc1cccc2ncccc12)CN1CCN(C2c3ccccc3[C@@H]3[C@H](c4ccccc42)C3(F)F)CC1 (stereo partly specified)"
group = 1

[[record]]
molecule = "O=C(NCC1CN(c2ccc(N3CCOCC3=O)cc2)C(=O)O1)c1ccc(Cl)s1 (stereo unspecified)"
group = 1

[[record]]
molecule = "CN(C)CCOC(c1ccccc1)c1ccc(Br)cc1 (stereo unspecified)"
group = 1

[[record]]
molecule = "Clc1ccc(C(OCCN2CCCCC2)c2ccccc2)cc1 (stereo unspecified)"
group = -1


---

# CONDITION INFO: Ebola virus entry assay, blue channel (ratio component)
Measured potencies and affinities stand elsewhere. The source made the active and inactive calls.
OUTCOME MEASURE: outcome

[[record]]
compound = "CCCCCN(CCCCC)C(=O)C(CCC(=O)O)NC(=O)c1ccc(Cl)c(Cl)c1 (stereo unspecified)"
outcome_measure = "outcome"
experimental_result = "inactive"

[[record]]
compound = "O=S(=O)(c1cccc2cnccc12)N1CCCNCC1"
outcome_measure = "outcome"
experimental_result = "inactive"

[[record]]
compound = "Nc1ccncc1N"
outcome_measure = "outcome"
experimental_result = "inactive"

[[record]]
compound = "OC[C@H]1O[C@@H](OCCc2ccc(O)cc2)[C@H](O)[C@@H](O)[C@H]1O"
outcome_measure = "outcome"
experimental_result = "inactive"

[[record]]
compound = "O=C1OC(c2ccc(O)cc2)(c2ccc(O)cc2)c2ccccc21"
outcome_measure = "outcome"
experimental_result = "inactive"

[[record]]
compound = "O=C1Nc2ccccc2C1(c1ccc(O)cc1)c1ccc(O)cc1"
outcome_measure = "outcome"
experimental_result = "inactive"

